The reported measurements were obtained from ChEMBL document CHEMBL3351292.

- study target: Transcriptional coactivator YAP1/Transcriptional enhancer factor TEF-1 (Homo sapiens)
- Sequence (P46937 whole entry): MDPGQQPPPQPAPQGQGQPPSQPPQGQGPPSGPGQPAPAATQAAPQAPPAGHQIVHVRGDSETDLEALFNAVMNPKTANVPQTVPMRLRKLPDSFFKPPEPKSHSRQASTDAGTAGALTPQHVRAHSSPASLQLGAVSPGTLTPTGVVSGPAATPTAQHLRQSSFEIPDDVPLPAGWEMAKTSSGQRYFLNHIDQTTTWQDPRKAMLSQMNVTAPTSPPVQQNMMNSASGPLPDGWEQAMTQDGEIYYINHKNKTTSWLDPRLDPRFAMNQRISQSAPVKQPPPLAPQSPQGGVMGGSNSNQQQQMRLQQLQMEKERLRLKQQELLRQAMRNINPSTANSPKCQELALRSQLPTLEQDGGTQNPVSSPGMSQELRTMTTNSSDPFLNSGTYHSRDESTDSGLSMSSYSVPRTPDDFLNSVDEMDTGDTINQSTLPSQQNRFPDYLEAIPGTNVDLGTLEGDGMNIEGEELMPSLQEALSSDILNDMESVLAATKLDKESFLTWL
- Sequence (P28347 whole entry): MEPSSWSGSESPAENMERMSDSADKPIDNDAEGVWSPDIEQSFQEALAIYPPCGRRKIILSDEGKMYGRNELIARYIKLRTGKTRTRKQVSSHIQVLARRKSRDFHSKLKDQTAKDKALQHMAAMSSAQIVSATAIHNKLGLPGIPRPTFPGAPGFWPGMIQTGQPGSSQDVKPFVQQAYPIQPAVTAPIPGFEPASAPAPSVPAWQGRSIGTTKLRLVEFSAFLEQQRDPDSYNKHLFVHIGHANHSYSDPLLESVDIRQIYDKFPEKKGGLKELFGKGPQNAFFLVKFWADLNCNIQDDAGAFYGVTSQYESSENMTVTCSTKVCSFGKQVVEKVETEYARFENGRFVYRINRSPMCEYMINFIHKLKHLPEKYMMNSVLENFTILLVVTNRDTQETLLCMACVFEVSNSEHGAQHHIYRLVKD
- assay details: Inhibition of YAP/ GST-TEAD1 interaction in human Bel-7404 cells […]
Quick list: Kd per entry.
Report the value in nM with no unit label.

Take a look at these entries with their results.
Inquiry: Kd for CCCC[C@@H]1NC(=O)[C@H](CCCCN)NC(=O)[C@H](CCCNC(=N)N)NC(=O)[C@H](CC(C)C)NC(=O)[C@@H](NC(=O)[C@H](Cc2cccc(Cl)c2)NC(=O)[C@@H]2CCCN2C(=O)[C@@H](NC(C)=O)C(C)C)CCSSC[C@@H](C(=O)N[C@@H](CCCCN)C(=O)N2CCC[C@H]2C(=O)N2CCC[C@H]2C(=O)N[C@@H](CCC(=O)O)C(N)=O)NC(=O)[C@H](Cc2ccccc2)NC(=O)[C@H](CO)NC(=O)[C@H](C)NC(=O)[C@@H]2CCCN2C1=O ?
Reply text: 15

Inquiry: Another: CCCCC[C@@H]1NC(=O)[C@H](CCCCN)NC(=O)[C@H](CCCNC(=N)N)NC(=O)[C@H](CC(C)C)NC(=O)[C@@H](NC(=O)[C@H](CCSC)NC(=O)[C@@H]2CCCN2C(=O)[C@@H](NC(C)=O)C(C)C)CCSSC[C@@H](C(=O)N[C@@H](CCCCN)C(=O)N2CCC[C@H]2C(=O)N2CCC[C@H]2C(=O)N[C@@H](CCC(=O)O)C(N)=O)NC(=O)[C@H](Cc2ccccc2)NC(=O)[C@H](CO)NC(=O)[C@H](C)NC(=O)[C@@H]2CCCN2C1=O
Reply text: 18

---
Inquiry: Kd for CCCC[C@@H]1NC(=O)[C@H](CCCCN)NC(=O)[C@H](CCCNC(=N)N)NC(=O)[C@H](CC(C)C)NC(=O)[C@@H](NC(=O)[C@H](CCSC)NC(=O)[C@@H]2CCCN2C(=O)[C@@H](NC(C)=O)C(C)C)CCSSC[C@@H](C(=O)N[C@@H](CCCCN)C(=O)N2CCC[C@H]2C(=O)N2CCC[C@H]2C(=O)N[C@@H](CCC(=O)O)C(N)=O)NC(=O)[C@H](Cc2ccccc2)NC(=O)[C@H](CO)NC(=O)[C@H](C)NC(=O)[C@@H]2CCCN2C1=O ?
Reply text: 39
